Assay Explanation: NCI Yeast Anticancer Drug Screen. Data for the cln2 rad14 strain (AID 165);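 note: 0% = growth equal to vehicle treated cultures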
Condition Details: S. cerevisiae cln2 rad14 strain, at 50.0 µM, stronger effect = higher value
Compounds without any hit were thinned out: in the full panel of roughly 79,000, 15% have a hit.
Tick Met if growth inhibition is 90% or greater. Tick Not met if growth inhibition is less than 90%.

Previously resolved entries follow.
Molecule | Assigned Label
S=c1nccc[nH]1 | Not met
CCCCN(CCCC)CC(O)c1ccc(Cl)c(Cl)c1 (stereo not drawn) | Not met
Cn1c(=S)[nH]n(CCOc2ccccc2)c1=S | Not met
CNC(=O)Oc1ccccc1N | Not met
CCC(CC)CNC(=O)C(C)Br (stereo not drawn) | Not met
O=[N+]([O-])c1ccc(C(Br)Br)cc1 | Met
C/C(=C\c1ccccc1)[N+](=O)[O-] | Not met
COc1ccc2c(ccc3oc([N+](=O)[O-])cc32)c1 | Not met
O=S(=O)(F)c1cc(Cl)c(O)cc1Cl | Not met
CCN(CC)CCc1ccccn1 | Not met

Can `[Cl][Hg][c]1cccc(I)c1N=Nc1ccccc1` be said to have growth inhibition at or above 90%?
Not met

---

Assay Explanation: NCI Yeast Anticancer Drug Screen. Data for the cln2 rad14 strain (AID 165);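 note: 0% = growth equal to vehicle treated cultures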
Condition Details: S. cerevisiae cln2 rad14 strain, at 50.0 µM, stronger effect = higher value
Compounds without any hit were thinned out: in the full panel of roughly 79,000, 15% have a hit.
Measured Metric: growth inhibition (%)
Your answer is read as %, so omit the unit and give the number.

Previously resolved entries follow.
Compound | growth inhibition [%]
CC(C)CC(=O)[O-].N.N.N.N.N.[Co+3].[O-][Cl+3]([O-])([O-])[O-] | 21.8
O=P(O)(O)SP(=O)(O)O.[Co] | -8.9

Consider the compound C/C(=N\NC(N)=O)C(CN(C)C)C(c1ccccc1)c1c(O)c2ccccc2oc1=O (centres undefined) and give its measured growth inhibition.
5

Consider the compound `C[n+]1ccccc1-c1ccc[n+](CCCC[n+]2cccc(-c3cccc[n+]3C)c2)c1` and give its measured growth inhibition.
-25.6

Consider the compound `COc1cc([C@@H]2c3cc4c(cc3C[C@H]3COC(=O)[C@@H]32)OCO4)cc(OC)c1OC` and give its measured growth inhibition.
27.6

---

Assay Explanation: NCI Yeast Anticancer Drug Screen. Data for the bub3 strain (AID 167)
Condition Details: S. cerevisiae bub3 mutant strain, at 50.0 µM, stronger effect = higher value
This is part of a sample that, as a whole, favours compounds with a hit. Of some 79,000 tested, about 15% had one in any assay.
Measured Metric: growth inhibition (%)
Your answer is read as %, so omit the unit and give the number.

Previously resolved entries follow.
Compound | Measured Metric | Value Measured
CCOP(=O)(OCC)/C(C#N)=C/c1ccc(C#N)cc1 | growth inhibition | 14.7
CC(=O)OC1CCC2(C)C(=CCC3C2CCC2(C)C(Oc4ccccc4)CCC32)C1 (centres undefined) | growth inhibition | -28.4
CC1OC(O[C@@H]2C=C3CC[C@@H]4[C@H](CC[C@]5(C)[C@@H](c6ccc(=O)oc6)CC[C@]45O)[C@@]3(C)CC2)C(O)C(O)C1O (some centres undefined) | growth inhibition | -15.9

Let us examine a further case.
Consider the compound O=C1CC2OCC=C3CN4CCC56c7ccccc7N1C5C2C3CC46 (centres undefined) and give its measured growth inhibition.
8.9
